Could you please report measured IC100 for the items listed next?
System: Artemia
protocol: In vitro antiparasitic activity in brine shrimp assay
Format: functional
Could you give me the number in ng/mL? Just the number is fine.

Item CCC(C)[C@H]1O[C@]2(C=C[C@@H]1C)C[C@@H]1C[C@@H](C/C=C(\C)[C@@H](O[C@H]3C[C@H](OC)[C@@H](O[C@H]4C[C@H](OC)[C@H](N(C)C)[C@H](C)O4)[C@H](C)O3)[C@@H](C)/C=C/C=C3\CO[C@@H]4[C@H](O)C(C)=C[C@@H](C(=O)O1)[C@]34O)O2 (some centres not stated) has what recorded IC100? 1300

Could you tell me which IC100 is on file for CCC(C)[C@H]1O[C@]2(CC[C@@H]1C)C[C@@H]1C[C@@H](C/C=C(\C)[C@@H](O[C@H]3C[C@H](OC)[C@@H](O[C@H]4C[C@H](OC)[C@H](N)[C@H](C)O4)[C@H](C)O3)[C@@H](C)/C=C/C=C3\CO[C@@H]4[C@H](O)C(C)=C[C@@H](C(=O)O1)[C@]34O)O2 (some centres not stated) ? 1730
